Tested on: recombinant AMPK proteins (α1β1γ1, α2β1γ1, α1(1-335), α1(1-394) or α2(1-394))
Experiment: Scintillation Proximity Assay (AMPK activation)
Assay type: biochemical, human
Conditions: effective concentration of activator for 50% of maximal enzyme activity; 2 hr at 30° C.; AMPK form not specified

compound: O=C(c1cccc(CN2C(=O)[C@]3(C[C@@H]3c3ccc(Cl)cc3)c3ccccc32)c1)N1CCCCC1 (racemic)
unit.of.measure: µM
EC50: 3.5
//
compound: O=C(O)c1cccc(CN2C(=O)[C@]3(C[C@H]3c3ccccc3F)c3ccccc32)c1 (mixture of isomers)
unit.of.measure: µM
EC50: 1.19
//
compound: O=C(O)c1cccc(CN2C(=O)[C@]3(C[C@@H]3c3ccc(Cl)cc3)c3cc(F)ccc32)c1 (racemic)
unit.of.measure: µM
EC50: 11.2

###

Test system: recombinant AMPK proteins (α1β1γ1, α2β1γ1, α1(1-335), α1(1-394) or α2(1-394))
Assay: Scintillation Proximity Assay (AMPK activation)
Assay type: biochemical, human
Details: effective concentration of activator for 50% of maximal enzyme activity; 2 hr at 30° C.; AMPK form not specified
Source text: Recombinant human AMPK α1β1γ1, α2β1γ1 or AMPK a subunit truncations α1 (1-335), α1 (1-394) and α2(1-394) were constructed, expressed and purified as described previously (Pang, T., Zhang, Z. S., Gu, M., Qiu, B. Y., Yu, L. F., Cao, P. R., Shao, W., Su, M. B., Li, J. Y., Nan, F. J., and Li, J. (2008) or purchased from Invitrogen (San Diego, Calif., U.S.A.). Rat liver AMPK heterotrimer enzyme was obtained from Upstate (Billerica, Mass., U.S.A.). […]
pEC50: −log10 of the molar value.
readout: pEC50

molecule: O=C(O)c1cccc(N2C(=O)[C@]3(C[C@H]3c3ccc(Cl)cc3)c3ccccc32)c1 (racemic) [Example 84]
tgt: recombinant AMPK proteins (α1β1γ1, α2β1γ1, α1(1-335), α1(1-394) or α2(1-394))
value.observed: 5.53
//
molecule: O=C(O)c1cccc(CN2C(=O)[C@@]3(C[C@@H]3c3ccc(Cl)cc3)c3cc(Br)ccc32)c1 (racemic) [Example 15]
tgt: recombinant AMPK proteins (α1β1γ1, α2β1γ1, α1(1-335), α1(1-394) or α2(1-394))
value.observed: 5.61
//
molecule: O=C(O)c1cccc(CN2C(=O)[C@@]3(C[C@@H]3c3ccc(Cl)cc3)c3cc(Cl)ccc32)c1 (racemic) [Example 14]
tgt: recombinant AMPK proteins (α1β1γ1, α2β1γ1, α1(1-335), α1(1-394) or α2(1-394))
value.observed: 5.69
//
molecule: CS(=O)(=O)NC(=O)c1cccc(N2C(=O)[C@@]3(C[C@@H]3c3ccc(Cl)cc3)c3ccccc32)c1 (racemic) [Example 91]
tgt: recombinant AMPK proteins (α1β1γ1, α2β1γ1, α1(1-335), α1(1-394) or α2(1-394))
value.observed: 5.81
//
molecule: O=C(Nc1cc(C2CC2)[nH]n1)c1cccc(CN2C(=O)[C@]3(C[C@@H]3c3ccc(Cl)cc3)c3ccccc32)c1 (racemic) [Example 117]
tgt: recombinant AMPK proteins (α1β1γ1, α2β1γ1, α1(1-335), α1(1-394) or α2(1-394))
value.observed: 6.00
//
molecule: O=C(O)c1cccc(CN2C(=O)[C@]3(C[C@H]3c3ccc(F)cc3)c3ccccc32)c1 (racemic) [Example 26]
tgt: recombinant AMPK proteins (α1β1γ1, α2β1γ1, α1(1-335), α1(1-394) or α2(1-394))
value.observed: 5.75
//
molecule: O=C(O)c1cc(N2CCCC2=O)cc(N2C(=O)[C@]3(C[C@H]3c3ccc(Cl)cc3)c3ccccc32)c1 (racemic) [Example 94]
tgt: recombinant AMPK proteins (α1β1γ1, α2β1γ1, α1(1-335), α1(1-394) or α2(1-394))
value.observed: 5.82
//
molecule: CNC(=O)c1cccc(CN2C(=O)[C@@]3(C[C@H]3c3ccc(Cl)cc3)c3ccccc32)c1 (racemic) [Example 110]
tgt: recombinant AMPK proteins (α1β1γ1, α2β1γ1, α1(1-335), α1(1-394) or α2(1-394))
value.observed: 5.86
//
molecule: CS(=O)(=O)c1cc(C(=O)O)cc(N2C(=O)[C@]3(C[C@H]3c3ccc(Cl)cc3)c3ccccc32)c1 (racemic) [Example 93]
tgt: recombinant AMPK proteins (α1β1γ1, α2β1γ1, α1(1-335), α1(1-394) or α2(1-394))
value.observed: 6.04
//
molecule: N#Cc1ccc([C@@H]2C[C@]23C(=O)N(Cc2cccc(C(=O)O)c2)c2ccccc23)cc1 (racemic) [Example 17]
tgt: recombinant AMPK proteins (α1β1γ1, α2β1γ1, α1(1-335), α1(1-394) or α2(1-394))
value.observed: 5.79
//
molecule: O=C(c1cccc(CN2C(=O)[C@]3(C[C@@H]3c3ccc(Cl)cc3)c3ccccc32)c1)N1CCNCC1 (racemic) [Example 62]
tgt: recombinant AMPK proteins (α1β1γ1, α2β1γ1, α1(1-335), α1(1-394) or α2(1-394))
value.observed: 5.18
//
molecule: O=C(O)c1cc(N2CCOC2=O)cc(N2C(=O)[C@]3(C[C@H]3c3ccc(Cl)cc3)c3ccccc32)c1 (racemic) [Example 92]
tgt: recombinant AMPK proteins (α1β1γ1, α2β1γ1, α1(1-335), α1(1-394) or α2(1-394))
value.observed: 6.06
